Ref: patent US4492693A

- Tested on: H. influenzae
- assay.protocol: Expanded Spectrum MIC (Table II)
- Assay type: cell-based
- recorded.conditions: Haemophilus influenzae, strain HESS
- Source text: A typical and preferred compound provided by this invention is 7-(3-benzothienyl)glycylamido-3-methyl-3-cephem-4-carboxylic acid, the compound illustrated in Example 9. The antibacterial activity of this compound has been determined in standard in vitro agar dilution assays against a variety of gram positive and gram negative microorganism. […]
Below: a set of entries, each annotated with reported log10 MIC.
Please keep in mind that the values are log10 of MIC expressed in µg/mL.

CON=C(C(=O)NC1C(=O)N2C(C(=O)O)=C(C)CSC12)c1csc2cc(OC)ccc12 (stereo not drawn)
0.60
CC1=C(C(=O)O)N2C(=O)C(NC(=O)[C@H](N)c3csc4cccc(F)c34)C2SC1 (stereo partly drawn)
1.20
CC1=C(C(=O)O)N2C(=O)C(NC(=O)[C@H](N)c3csc4cc(F)ccc34)C2SC1 (stereo partly drawn)
0.00
CC1=C(C(=O)O)N2C(=O)C(NC(=O)[C@H](N)c3csc4ccc(F)cc34)C2SC1 (stereo partly drawn)
0.30

Request: Look up log10 MIC: CC1=C(C(=O)O)N2C(=O)C(NC(=O)[C@H](N)c3csc4c(F)cccc34)C2SC1 (stereo partly drawn)
Result: 0.90

Request: Look up log10 MIC: CC1=C(C(=O)O)N2C(=O)C(NC(=O)C(N)c3csc4ccccc34)C2SC1 (stereo not drawn)
Result: 0.00
